Recorded log10(XC50) for the following molecules
System: Plasmodium falciparum
Assay: GSK_TCMDC: Inhibition of Plasmodium falciparum 3D7 in whole erythrocytes, using parasite LDH activity as an index of growth.
Assay type: functional, organism-based
Settings: Plasmodium falciparum, 3D7
Could you please treat all values as log10 of XC50 in nM?

molecule="CCN(Cc1ccccc1)CC(O)c1ccc(Cl)c(Cl)c1 (stereo not given)" test_system="Plasmodium falciparum" numeric_value=2.26
molecule=Nc1nccc2ccc(OC3CCCCC3)cc12 test_system="Plasmodium falciparum" numeric_value=2.78
molecule=N#Cc1ccc(-c2cnc3ccc(NCCc4cccnc4)nn23)cc1 test_system="Plasmodium falciparum" numeric_value=2.41
molecule=COc1ccc2nccc(N3CCCN(CCNCc4ccc5c(n4)NC(=O)CS5)CC3)c2n1 test_system="Plasmodium falciparum" numeric_value=2.19

Now let's try a different one.
Input CN(C)c1ccc(C=Cc2nc(=O)c3ccccc3o2)cc1 . Output log10(XC50): 1.65

* * *

Tested on: Plasmodium falciparum
Test: GSK_TCMDC: Inhibition of Plasmodium falciparum 3D7 in whole erythrocytes, using parasite LDH activity as an index of growth.
Assay type: functional, organism-based
Details: Plasmodium falciparum, 3D7
Listed here: items and their measured XC50.
Dear colleague, please return just the value in nM, with no unit written.

Reference set, count: 3
compound=CCOc1ccc(Nc2ccc3nonc3c2S(=O)(=O)Nc2ccc(OCC)cc2)cc1 unit_annotation=nM numeric_value=505
compound=CNC(=O)Cc1ccc(C(=O)Nc2cccc(-c3ccc(-c4nc5cccc(C)c5[nH]4)s3)c2)cc1 unit_annotation=nM numeric_value=632
compound=O=C(Nc1cccc(CN2CCCN(Cc3ncc[nH]3)CC2)c1)c1cc2ccccc2s1 unit_annotation=nM numeric_value=734

The reported value for CC(C)CN1C(=O)c2ccc(C(=O)Nc3nccs3)cc2C1=O in terms of XC50 is 971

Given item COc1cccc(C(=O)Nc2nc3c(s2)CCN(Cc2ccccc2N2CCNCC2)CC3)c1 , the value recorded as its XC50 is 888

Entry O=C(Cn1c(CCc2cccc(F)c2F)nc(=O)c2cccnc21)N(Cc1ccc(-c2ccc(C(F)(F)F)cc2)cc1)C1CCN(C2CCOCC2)CC1 , XC50 reported as 828

For CCOC(=O)C1=C(C)NC2=C(C(=O)CCC2)C1c1cn(Cc2ccc(Cl)cc2Cl)nc1-c1ccccc1 (configuration not stated) the compound record lists XC50 as 625

* * *

Tested on: Plasmodium falciparum
Assay: GSK_TCMDC: Inhibition of Plasmodium falciparum 3D7 in whole erythrocytes, using parasite LDH activity as an index of growth.
Type: functional, organism-based
Conditions: Plasmodium falciparum, 3D7
Quick list: XC50 per entry.
Numbers only; they are read as nM.

molecule=CC(C)(C)c1ccc(S(=O)(=O)Nc2ccccc2Cn2nc(N3CCNCC3)ccc2=O)cc1 unit_annotation=nM numeric_value=846
molecule=Oc1ccc(CCNc2nc(NCCCOc3cccc(-c4ccccc4)c3)nc(N3CCNCC3)n2)cc1 unit_annotation=nM numeric_value=1130
molecule="NC(=O)c1cc(-c2ccccc2)cc2c(C3CCC(NCc4ccccc4)C3)c[nH]c12 (configuration not stated)" unit_annotation=nM numeric_value=910
molecule=O=S(=O)(ON=C1CCc2ccccc21)c1ccc(Cl)cc1 unit_annotation=nM numeric_value=1310
molecule=O=C(NCCc1ccccc1)c1cc(-c2cccnc2)cnc1NCC1CC1 unit_annotation=nM numeric_value=847

Lab note: measured XC50 of O=C(Nc1ccc2c(c1)OCO2)NC1CCN(c2ccnc(Nc3ccc(F)cc3)n2)C1 (configuration not stated) was 743

// O=c1cc(NCCCNCc2cc3c(Cl)cc(Cl)cc3[nH]2)[nH]c2ccccc12 : XC50 value = 862

* * *

Tested on: Plasmodium falciparum
Assay: GSK_TCMDC: Inhibition of Plasmodium falciparum 3D7 in whole erythrocytes, using parasite LDH activity as an index of growth.
Format: functional, organism-based
Details: Plasmodium falciparum, 3D7
experimental.readout: XC50 (nM)
Express it in nM; write the number only.

compound=CC[C@H]1CN2CC[C@H]1C[C@H]2[C@H](OC(=O)c1ccccc1)c1cc(C#N)nc2ccc(OC)cc12 experimental_readout=XC50 unit_annotation=nM numeric_value=915
compound=Cc1cc(O)c(CN2CCN(Cc3cccs3)CC2)cc1C(C)C experimental_readout=XC50 unit_annotation=nM numeric_value=716
compound=Cc1sc(N2CCCCC2)nc1C(=O)Nc1ccc(F)cc1C(F)(F)F experimental_readout=XC50 unit_annotation=nM numeric_value=1150
compound="Oc1ccccc1CNCc1ccc(-c2cnc(N3CCCC(c4ccccc4)C3)nc2)cc1 (stereo unspecified)" experimental_readout=XC50 unit_annotation=nM numeric_value=689
compound=COc1ccc(CNc2ncnc3c2[nH]c2ccc(F)cc23)cc1 experimental_readout=XC50 unit_annotation=nM numeric_value=980

Query CCOC(=O)c1ccc(COc2ccc(C)nc2)cc1 yields XC50 of 542

The recorded XC50 for entry Fc1cc(Cl)ccc1Nc1ccnc2cc(-c3scnc3CNCCN3CCOCC3)ccc12 equals 848

Query CCN(CC)CCN(Cc1ccc(-c2ccc(C(F)(F)F)cc2)cc1)C(=O)c1ccc(-c2ccc(NC(=O)OC)cc2C)cc1 yields XC50 of 929

// field: XC50; key: CN1CCN(C(=O)CN2CCC3(CCC2=O)NC(=O)c2ccccc2O3)CC1 (stereo unspecified) ; value = 213

Notebook: CO/C(=C\C=C\c1cc2cc(Cl)c(Cl)cc2[nH]1)C(=O)NC1CC2CCC(C1)N2C (stereo unspecified) , XC50 read as 1030

Briefly, XC50 measured for CC(=O)Nc1[nH]c(-c2ccccc2)nc1C(N)=O : 249

* * *

Tested on: Plasmodium falciparum
Test: GSK_TCMDC: Inhibition of Plasmodium falciparum 3D7 in whole erythrocytes, using parasite LDH activity as an index of growth.
Type: functional, organism-based
Details: Plasmodium falciparum, 3D7
Entries and their XC50 values follow.

Sample records with XC50:
molecule=CC(=O)N(C)c1ccc(C(=O)Nc2cccc(-c3cccc(-c4nc5cccc(C)c5[nH]4)c3)c2)cc1 result="0.62 µM"
molecule=O=C(NCCCNc1ccnc2cc(Cl)ccc12)c1ccccc1F result="0.315 µM"

response.value for Oc1c(Cl)cc(Nc2nccc(Nc3ccc(Oc4ccccc4)cc3)n2)cc1Cl (field: XC50) = 0.786 µM

Recorded XC50 (molecule COc1ccc(NC(=S)NC(NC(=O)CF)C(Cl)(Cl)Cl)cc1[N+](=O)[O-] (stereo not given) ): 0.479 µM

The recorded XC50 for entry COc1ccc2nccc(NCC3(O)CCN(CCc4ccc5c(c4)OCCO5)CC3)c2n1 equals 0.597 µM

// XC50 lookup, molecule = CCNC(=O)Nc1cccc(-c2cccc(-c3nc4cccc(C)c4[nH]3)c2)c1 , result: 1.04 µM

* * *

Tested on: Plasmodium falciparum
Test: GSK_TCMDC: Inhibition of Plasmodium falciparum 3D7 in whole erythrocytes, using parasite LDH activity as an index of growth.
Type: functional, organism-based
Conditions: Plasmodium falciparum, 3D7
experimental.readout: log10(XC50) (log10 of the value in nM)
Friendly reminder: values = log10 of XC50, unit nM.

Item: Cc1cc(C(=O)N[C@H]2CCN(Cc3ccc(OCCCN(C)C)cc3)C2)ccc1Br | log10(XC50): 2.95

* * *

Test system: Plasmodium falciparum
Experiment: GSK_TCMDC: Inhibition of Plasmodium falciparum 3D7 in whole erythrocytes, using parasite LDH activity as an index of growth.
Format: functional, organism-based
Conditions: Plasmodium falciparum, 3D7
Kindly apply the following: YES if XC50 is less than 800 nM, NO in every other case.

Worked set:
molecule=Cc1ccc(NC(=O)c2ccc3ncccc3c2)cc1OC1CCN(CCC(C)C)CC1 category_label=YES
molecule=O=C(c1cc(-c2ccco2)n[nH]1)N1CCN(S(=O)(=O)c2ccc(Br)cc2)CC1 category_label=YES
molecule=O=C(NC1CCN(Cc2ccccc2)CC1)c1ccc(-c2nc3cc(Cl)c(F)cc3[nH]2)s1 category_label=YES
molecule=Cc1cc(N)c2cc(NC(=O)c3cccc4ccccc34)ccc2n1 category_label=NO
molecule=COC(=O)c1cccc(CN(CCC(O)(C(F)(F)F)C(F)(F)F)C(=O)CC2CCCC2)c1 category_label=NO
molecule=CCc1nc2nc(C)cc(Nc3cc(C)cc(C)c3)n2n1 category_label=YES
molecule="O=C(NC1CCC(CN2CCC(c3c[nH]c4ccccc34)CC2)CC1)c1cc(-c2ccc(F)cc2F)ccc1O (stereo unspecified)" category_label=YES
molecule=Clc1ccc(OCc2ccccc2)c(Cc2ccc(-c3nc4cnccc4[nH]3)o2)c1 category_label=YES

# input Report whether reported XC50 is lower than 800 nM (strictly) for O=C(c1ccc(-c2ccc(Cl)cc2)o1)N1CCc2cc3nccc(N4CCN5CCC[C@H]5C4)c3cc21
# output YES

# input Quick check: XC50 of Cc1cccc2nc(-c3ccc(-c4ccc(NC(=O)C(C)CN(C)C)cc4)cc3)[nH]c12 (stereo unspecified) under 800 nM?
# output YES

# input Lab note: XC50 threshold 800 nM. Does this molecule come in strictly under it? Cc1cccc(CNc2nc(C)cc(N[C@@H](Cc3ccccc3)C(=O)NCc3cccc(F)c3)n2)c1
# output NO

# input Please check: XC50 for N#Cc1ccccc1S(=O)(=O)N1CCCC(CNC(=O)[C@H](CC2CCCCC2)NC(=O)c2cc3ccccc3s2)C1 (stereo partly specified) , strictly under 800 nM or not?
# output YES

# input Is XC50 strictly under 800 nM for the entry CCOc1ccc(-c2nonc2NC(=O)c2ccccc2OC)cc1OCC ?
# output YES
